Where do these numbers come from? They come from the supplement of paper PMC11061612.

# Test system: DK-MG (Glioblastoma)
# test method notes: Bliss excess, mean over the matrix (fraction); higher = more synergy;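 also: after 72 h of two-drug dosing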
# label = TRUE if Bliss excess >= 0.009 else FALSE

Cn1cnc2c(F)c(Nc3ccc(Br)cc3Cl)c(C(=O)NOCCO)cc21 [Selumetinib] + C[C@@H]1COCCN1C2=NC(=NC(=C2)C3(CC3)[S@](=N)(=O)C)C4=C5C=CNC5=NC=C4 [AZD6738] (first compound max 10 µM, 7x7, partner max 10 µM): TRUE
CC1(C)CCC(CN2CCN(c3ccc(C(=O)NS(=O)(=O)c4ccc(NCC5CCOCC5)c([N+](=O)[O-])c4)c(Oc4cnc5[nH]ccc5c4)c3)CC2)=C(c2ccc(Cl)cc2)C1 [Venetoclax] + C[C@@H]1COCCN1C2=NC(=NC(=C2)C3(CC3)[S@](=N)(=O)C)C4=C5C=CNC5=NC=C4 [AZD6738] (first compound max 1 µM, 7x7, partner max 10 µM): FALSE
CN(CCO)CC[C@H](CSc1ccccc1)Nc1ccc(S(=O)(=O)NC(=O)c2ccc(N3CCC([C@@H](O)c4ccccc4-c4ccc(Cl)cc4)CC3)cc2)cc1S(=O)(=O)C(F)(F)F [AZD4320] + C=CCn1c(=O)c2cnc(Nc3ccc(N4CCN(C)CC4)cc3)nc2n1-c1cccc(C(C)(C)O)n1 [AZD1775] (first compound max 1 µM, partner max 1 µM): FALSE
CN(CCO)CC[C@H](CSc1ccccc1)Nc1ccc(S(=O)(=O)NC(=O)c2ccc(N3CCC([C@@H](O)c4ccccc4-c4ccc(Cl)cc4)CC3)cc2)cc1S(=O)(=O)C(F)(F)F [AZD4320] + C1CN(CCC1(C(=O)N[C@@H](CCO)C2=CC=C(C=C2)Cl)N)C3=NC=NC4=C3C=CN4 [Capivasertib] (first compound max 1 µM, 7x7, partner max 3 µM): FALSE
CCc1c2c(nc3ccc(O)cc13)-c1cc3c(c(=O)n1C2)COC(=O)[C@]3(O)CC [SN-38] + O=C(c1cc(Cc2n[nH]c(=O)c3ccccc23)ccc1F)N1CCN(C(=O)C2CC2)CC1 [Olaparib] (first compound max 0.3 µM, 7x7, partner max 10 µM): TRUE
COc1nnc2ccc(N3CCC(c4ccc(OCCN5CCN(C)C(=O)[C@H]5C)cc4)CC3)nn12 [AZD5153] + Cn1cnc2c(F)c(Nc3ccc(Br)cc3Cl)c(C(=O)NOCCO)cc21 [Selumetinib] (first compound max 1 µM, 7x7, partner max 10 µM): FALSE

stdin: Threshold query (Bliss excess >= 0.009) on CC(=O)c1c(C)c2cnc(Nc3ccc(N4CCNCC4)cn3)nc2n(C2CCCC2)c1=O [Palbociclib] + Cc1c2c(nn1C)CSCc1cc(n(C)n1)CSc1cc(c3ccccc3c1)OCCCc1c(C(=O)O)n(C)c3c-2c(Cl)ccc13 [AZD5991] (first compound max 10 µM, 7x7, partner max 1 µM)
stdout: FALSE

stdin: Threshold query (Bliss excess >= 0.009) on CC1(C)CCC(CN2CCN(c3ccc(C(=O)NS(=O)(=O)c4ccc(NCC5CCOCC5)c([N+](=O)[O-])c4)c(Oc4cnc5[nH]ccc5c4)c3)CC2)=C(c2ccc(Cl)cc2)C1 [Venetoclax] + C=CCn1c(=O)c2cnc(Nc3ccc(N4CCN(C)CC4)cc3)nc2n1-c1cccc(C(C)(C)O)n1 [AZD1775] (first compound max 1 µM, partner max 1 µM)
stdout: FALSE

stdin: Threshold query (Bliss excess >= 0.009) on NC1(C(=O)N[C@@H](CCO)c2ccc(Cl)cc2)CCN(c2ncnc3[nH]ccc23)CC1 [Capivasertib] + COc1nnc2ccc(N3CCC(c4ccc(OCCN5CCN(C)C(=O)[C@H]5C)cc4)CC3)nn12 [AZD5153] (first compound max 10 µM, 7x7, partner max 1 µM)
stdout: TRUE

stdin: Threshold query (Bliss excess >= 0.009) on Cc1c2c(nn1C)CSCc1cc(n(C)n1)CSc1cc(c3ccccc3c1)OCCCc1c(C(=O)O)n(C)c3c-2c(Cl)ccc13 [AZD5991] + C[C@@H](Nc1cc(F)cc(F)c1)c1cc(C(=O)N(C)C)cc2c(=O)cc(N3CCOCC3)oc12 [AZD8186] (first compound max 1 µM, 7x7, partner max 3 µM)
stdout: TRUE

stdin: Threshold query (Bliss excess >= 0.009) on Cc1cc2ncnn2cc1Nc1ncc2c(n1)n(C1CCOCC1)c(=O)n2C [AZD7648] + C[C@@H]1COCCN1C2=NC(=NC(=C2)C3(CC3)[S@](=N)(=O)C)C4=C5C=CNC5=NC=C4 [AZD6738] (first compound max 10 µM, 7x7, partner max 10 µM)
stdout: TRUE

stdin: Threshold query (Bliss excess >= 0.009) on Cc1cc2ncnn2cc1Nc1ncc2c(n1)n(C1CCOCC1)c(=O)n2C [AZD7648] + C=CCn1c(=O)c2cnc(Nc3ccc(N4CCN(C)CC4)cc3)nc2n1-c1cccc(C(C)(C)O)n1 [AZD1775] (first compound max 10 µM, partner max 1 µM)
stdout: TRUE

stdin: Threshold query (Bliss excess >= 0.009) on CN(CCO)CC[C@H](CSc1ccccc1)Nc1ccc(S(=O)(=O)NC(=O)c2ccc(N3CCC([C@@H](O)c4ccccc4-c4ccc(Cl)cc4)CC3)cc2)cc1S(=O)(=O)C(F)(F)F [AZD4320] + C[C@@H]1COCCN1C2=NC(=NC(=C2)C3(CC3)[S@](=N)(=O)C)C4=C5C=CNC5=NC=C4 [AZD6738] (first compound max 1 µM, 7x7, partner max 10 µM)
stdout: FALSE

----------
# System: NCI-H1435 (Non-Small Cell Lung Carcinoma)
# test method notes: Bliss excess, mean over the matrix (fraction); higher = more synergy
parameter measured: Bliss excess
API doc: respond with a numeric literal and nothing else, no unit.

stdin: Respond only with Bliss excess recorded for CS(=O)(=O)CCNCc1ccc(-c2ccc3ncnc(Nc4ccc(OCc5cccc(F)c5)c(Cl)c4)c3c2)o1 [Lapatinib] + NC1(c2ccc(-c3nc4ccn5c(=O)[nH]nc5c4cc3-c3ccccc3)cc2)CCC1 [MK-2206] (first compound max 10 µM, 7x7, partner max 10 µM)
stdout: 0.0601

----------
# Tested on: SBC-3 (Small Cell Lung Carcinoma)
# test method notes: Bliss excess, mean over the matrix (fraction); higher = more synergy
parameter measured: Bliss excess
API doc: respond with a numeric literal and nothing else, no unit.

Cc1c2c(nn1C)CSCc1cc(n(C)n1)CSc1cc(c3ccccc3c1)OCCCc1c(C(=O)O)n(C)c3c-2c(Cl)ccc13 [AZD5991] + C[C@@H](Nc1cc(F)cc(F)c1)c1cc(C(=O)N(C)C)cc2c(=O)cc(N3CCOCC3)oc12 [AZD8186] (first compound max 1 µM, 7x7, partner max 3 µM): -0.0341
Cc1cc2ncnn2cc1Nc1ncc2c(n1)n(C1CCOCC1)c(=O)n2C [AZD7648] + C[C@@H]1COCCN1C2=NC(=NC(=C2)C3(CC3)[S@](=N)(=O)C)C4=C5C=CNC5=NC=C4 [AZD6738] (first compound max 10 µM, 7x7, partner max 10 µM): 0
CCN(CCO)CCCOc1ccc2c(Nc3cc(CC(=O)Nc4cccc(F)c4)[nH]n3)ncnc2c1 [AZD2811] + C[C@@H]1COCCN1C2=NC(=NC(=C2)C3(CC3)[S@](=N)(=O)C)C4=C5C=CNC5=NC=C4 [AZD6738] (first compound max 1 µM, 7x7, partner max 10 µM): -0.0369
CN(CCO)CC[C@H](CSc1ccccc1)Nc1ccc(S(=O)(=O)NC(=O)c2ccc(N3CCC([C@@H](O)c4ccccc4-c4ccc(Cl)cc4)CC3)cc2)cc1S(=O)(=O)C(F)(F)F [AZD4320] + Cc1cc2ncnn2cc1Nc1ncc2c(n1)n(C1CCOCC1)c(=O)n2C [AZD7648] (first compound max 1 µM, 7x7, partner max 10 µM): -0.0767
Cc1cc2ncnn2cc1Nc1ncc2c(n1)n(C1CCOCC1)c(=O)n2C [AZD7648] + C=CCn1c(=O)c2cnc(Nc3ccc(N4CCN(C)CC4)cc3)nc2n1-c1cccc(C(C)(C)O)n1 [AZD1775] (first compound max 10 µM, partner max 1 µM): -0.0374
Cn1cnc2c(F)c(Nc3ccc(Br)cc3Cl)c(C(=O)NOCCO)cc21 [Selumetinib] + C=CCn1c(=O)c2cnc(Nc3ccc(N4CCN(C)CC4)cc3)nc2n1-c1cccc(C(C)(C)O)n1 [AZD1775] (first compound max 10 µM, partner max 1 µM): -0.0655

Next molecule, Bliss excess to be filled in.
stdin: Respond only with Bliss excess recorded for COc1cccc(OCCCN)c1-c1cc(Nc2cnc(C#N)cn2)n[nH]1 [Prexasertib] + CN(C)CCCOc1ccc(-c2ccc3ncc4c(c3c2)n(C2CCOCC2)c(=O)n4C)cn1 [AZD0156] (first compound max 1 µM, 7x7, partner max 1 µM)
stdout: -0.0046

----------
Recorded Bliss excess for the following molecules
# Tested on: BC-1 (B-Cell Non-Hodgkin's Lymphoma)
# test method notes: Bliss excess, mean over the matrix (fraction); higher = more synergy
API doc: respond with a numeric literal and nothing else, no unit.

Consider the following illustrative entries.
CN(CCO)CC[C@H](CSc1ccccc1)Nc1ccc(S(=O)(=O)NC(=O)c2ccc(N3CCC([C@@H](O)c4ccccc4-c4ccc(Cl)cc4)CC3)cc2)cc1S(=O)(=O)C(F)(F)F [AZD4320] + C[C@@H]1COCCN1C2=NC(=NC(=C2)C3(CC3)[S@](=N)(=O)C)C4=C5C=CNC5=NC=C4 [AZD6738] (first compound max 1 µM, 7x7, partner max 10 µM): -0.0014
Cc1c2c(nn1C)CSCc1cc(n(C)n1)CSc1cc(c3ccccc3c1)OCCCc1c(C(=O)O)n(C)c3c-2c(Cl)ccc13 [AZD5991] + C[C@@H]1COCCN1C2=NC(=NC(=C2)C3(CC3)[S@](=N)(=O)C)C4=C5C=CNC5=NC=C4 [AZD6738] (first compound max 1 µM, 7x7, partner max 10 µM): -0.0396

Next molecule, Bliss excess to be filled in.
stdin: Respond only with Bliss excess recorded for COc1nnc2ccc(N3CCC(c4ccc(OCCN5CCN(C)C(=O)[C@H]5C)cc4)CC3)nn12 [AZD5153] + Cn1cnc2c(F)c(Nc3ccc(Br)cc3Cl)c(C(=O)NOCCO)cc21 [Selumetinib] (first compound max 1 µM, 7x7, partner max 10 µM)
stdout: -0.036
